# tested_on: Fibroblast growth factor 2 (Homo sapiens) (UniProt P09038)
# Sequence (P09038 whole entry, looked up): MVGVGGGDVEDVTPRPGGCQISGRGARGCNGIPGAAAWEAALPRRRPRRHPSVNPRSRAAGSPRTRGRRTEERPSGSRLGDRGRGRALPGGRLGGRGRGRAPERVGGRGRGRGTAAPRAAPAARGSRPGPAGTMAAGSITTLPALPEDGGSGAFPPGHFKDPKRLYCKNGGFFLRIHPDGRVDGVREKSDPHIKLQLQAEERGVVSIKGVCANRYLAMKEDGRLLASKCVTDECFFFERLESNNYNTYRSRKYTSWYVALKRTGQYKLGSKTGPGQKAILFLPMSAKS
# assay_explanation: FGF2 binders on small-molecule microarrays, primary screen, biochemical, small-molecule microarray, 635/667 nm fluorescence (AID 1133)
# condition_parameters: small-molecule microarray binding, FGF2, fluorescence 635/667; higher = more signal
Reported composite z-score values for the following molecules.

{"molecule": "CC(C)[Si](OCC[C@H]1O[C@]2(C(=O)N(Cc3ccccc3)c3ccccc32)[C@@H](C)[C@@H]1[Si](C)(C)O)(C(C)C)C(C)C", "composite z-score": -0.206}
{"molecule": "CC(c1ccccc1)C(O)C1C=CC2C(=O)N(C)C(=O)C2N1N(c1ccccc1)c1ccccc1 (centres undefined)", "composite z-score": -0.377}
{"molecule": "COc1ccc(C(=O)Nc2ccc(CN3C(=O)[C@]4(O[C@H](CCn5cc(CCO)nn5)[C@@H]([Si](C)(C)c5ccc(OC)cc5)[C@@H]4C)c4ccccc43)cc2)cc1", "composite z-score": 1.57}
{"molecule": "O=C1C2C=CC(C(O)Cc3ccccc3)N(Nc3ccc([N+](=O)[O-])cc3)C2C(=O)N1c1ccccc1 (centres undefined)", "composite z-score": -0.165}
